Record form. Attribute: pIC50. Fill in for each entry.
# target-entity: Fatty-acid amide hydrolase 1 (Mus musculus)
# Sequence (O08914 whole entry): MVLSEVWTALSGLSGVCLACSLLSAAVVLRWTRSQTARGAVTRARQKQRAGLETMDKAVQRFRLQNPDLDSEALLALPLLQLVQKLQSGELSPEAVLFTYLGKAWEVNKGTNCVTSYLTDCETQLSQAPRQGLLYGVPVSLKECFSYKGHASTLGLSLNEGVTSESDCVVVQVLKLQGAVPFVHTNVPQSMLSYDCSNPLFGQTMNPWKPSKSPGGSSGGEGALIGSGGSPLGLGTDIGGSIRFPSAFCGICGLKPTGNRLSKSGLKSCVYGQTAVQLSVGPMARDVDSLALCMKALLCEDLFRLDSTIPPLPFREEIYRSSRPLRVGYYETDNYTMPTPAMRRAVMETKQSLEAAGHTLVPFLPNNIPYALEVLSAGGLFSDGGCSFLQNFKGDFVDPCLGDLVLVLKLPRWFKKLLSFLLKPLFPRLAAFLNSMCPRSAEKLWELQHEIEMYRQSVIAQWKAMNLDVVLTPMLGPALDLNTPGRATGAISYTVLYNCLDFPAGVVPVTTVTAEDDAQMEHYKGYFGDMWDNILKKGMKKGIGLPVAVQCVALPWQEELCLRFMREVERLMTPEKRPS
One number for each entry, as −log10 of the molar value.

molecule: CCOP(=O)(OCC)Oc1ccc([N+](=O)[O-])cc1 [PARAOXON]
property-label: pIC50
endpoint-result: 6.27
//
molecule: CCCCCCCCCCCCP(=O)(OCC)Oc1nc(Cl)c(Cl)cc1Cl (stereo unspecified)
property-label: pIC50
endpoint-result: 7.38
//
molecule: CCCCCCCCS(=O)(=O)F
property-label: pIC50
endpoint-result: 8.72
//
molecule: CCCCCCCCCCCCP(=O)(OCC)Oc1ccc(C#N)cc1 (stereo unspecified)
property-label: pIC50
endpoint-result: 7.92
//
molecule: CCCCCCCCCCCCP(=O)(Oc1ccc([N+](=O)[O-])cc1)OC(C)C (stereo unspecified)
property-label: pIC50
endpoint-result: 8.52

stdin: Requested read-out: pIC50. Entry: CCCCCCCCCSP1(=O)OCc2ccccc2O1 (stereo unspecified)
stdout: 9.82

====

# Test system: Mus musculus
# assay-comment: Modulation of cataleptic behavior in Swiss-Webster mouse assessed as >10 sec latency along with flattened posture and open eyes at 10 mg/kg, ip by bar test
# Assay type: functional, organism-based
# Set-up: dose 10 mg/kg
The source made the active and inactive calls. The rule behind the calls is not given here.
Answer with one of the outcomes active, inactive

compound: CCCCCCCCS(=O)(=O)F
label-value: active

compound: CCCCCCCCCCCCS(=O)(=O)F [DODECANESULFONYL FLUORIDE]
label-value: active

stdin: # outcome recorded in this test, key = CCCCCCCCCCCCP(=O)(OCC)Oc1ccc(C#N)cc1 (centres undefined)
stdout: active

stdin: Hello, I am checking results. What call was entered for CCCCCCCCCCCCP(=O)(OCC)Oc1nc(Cl)c(Cl)cc1Cl (centres undefined) ?
stdout: inactive

====

# Test system: Mus musculus
# assay-comment: Increase in Swiss-Webster mouse brain 2-arachidonoylglycerol level at 10 mg/kg, ip
# Assay type: functional, organism-based
# Parameters: dose 10 mg/kg
Activity calls are given as the source filed them. No cut-off for these calls is given here.
The categories you may choose from are t = active, f = inactive

molecule: CCCCCCCCS(=O)(=O)F
label-value: t
//
molecule: CCCCCCCCCCCCP(=O)(OCC)Oc1nc(Cl)c(Cl)cc1Cl (centres undefined)
label-value: f
//
molecule: CCCCCCCCCCCCP(=O)(OCC)Oc1ccc(C#N)cc1 (centres undefined)
label-value: t

Please find the next molecule below.
stdin: Can you look up the reported call for CCCCCCCCCCCCS(=O)(=O)F [DODECANESULFONYL FLUORIDE] for me?
stdout: t

Recorded values, source ChEMBL document CHEMBL1151798.
